I'd be grateful if you could share measured MIC EC for these entries.
- Tested on: Escherichia coli ATCC 25922
- Type: cell-based
- condition-set: Gram-negative, 18-24 hrs at 37° C.
Answers are plain numbers, in µM.

Worked examples follow.
CC[C@H](C)[C@H](NC(=O)[C@H](CCCNC(=N)N)NC(=O)[C@H](CCCNC(=N)N)NC(=O)[C@H](CC(C)C)NC(=O)[C@H](CCc1ccccc1)NC(=O)[C@H](Cc1ccccc1)NC(=O)[C@@H](N)Cc1ccccc1)C(=O)N[C@@H](Cc1ccccc1)C(N)=O [compound 19] :: 12.5
N=C(N)NCCC[C@H](NC(=O)[C@H](CCCNC(=N)N)NC(=O)[C@H](Cc1ccccc1)NC(=O)[C@H](CCc1ccccc1)NC(=O)[C@H](Cc1ccccc1)NC(=O)[C@@H](N)Cc1ccccc1)C(=O)N[C@@H](Cc1ccccc1)C(=O)N[C@@H](Cc1ccccc1)C(N)=O [compound 53] :: 12.5
CC[C@H](C)[C@H](NC(=O)[C@H](CCCNC(=N)N)NC(=O)[C@H](CO)NC(=O)[C@H](CC(C)C)NC(=O)[C@H](Cc1ccccc1)NC(=O)[C@H](Cc1ccccc1)NC(=O)[C@@H](N)Cc1ccccc1)C(=O)N[C@@H](Cc1ccccc1)C(N)=O [compound 2] :: 50

(Q) Any idea what its MIC EC is? The compound is N=C(N)NCCC[C@H](NC(=O)[C@H](CCCNC(=N)N)NC(=O)[C@H](Cc1ccccc1)NC(=O)[C@H](Cc1ccccc1)NC(=O)[C@H](Cc1ccccc1)NC(=O)[C@@H](N)Cc1ccccc1)C(=O)N[C@@H](Cc1ccccc1)C(=O)N[C@@H](Cc1ccccc1)C(N)=O [compound 39]
(A) 12.5

* * *

For each record, write down the corresponding MIC EC.
- Tested on: Escherichia coli ATCC 25922
- Type: cell-based
- condition-set: Gram-negative, 18-24 hrs at 37° C.
Ends that are not written are not given here.
One number for each entry, in µM.

Check out these entries, answers already filled in.
FFRRFFFF-NH2 [compound 41] :: 12.5
FRFRFRFR-NH2 [compound 56] :: 3

// next item, MIC EC requested
(Q) Value lookup for MIC EC; key = FFFRRRFF-NH2 [compound 38]
(A) 25

* * *

Give HC50 at 1 h for every item shown.
- assay: Cytotoxicity assay: hemolysis of erythrocytes
- Format: cell-based
- condition-set: 50% hemolysis, human erythrocytes, 1 h at 37° C., pH 7.4; read-out: LC50 Erythrocytes Human

Solved cases (2 shown):
CC[C@H](C)[C@H](NC(=O)[C@H](CCCNC(=N)N)NC(=O)[C@H](CO)NC(=O)[C@H](CC(C)C)NC(=O)[C@H](Cc1ccccc1)NC(=O)[C@H](Cc1ccccc1)NC(=O)[C@@H](N)Cc1ccccc1)C(=O)N[C@@H](Cc1ccccc1)C(N)=O [compound 2] :: > 200 µM
N=C(N)NCCC[C@H](NC(=O)[C@H](CCCNC(=N)N)NC(=O)[C@H](Cc1ccccc1)NC(=O)[C@H](CCCNC(=N)N)NC(=O)[C@H](Cc1ccccc1)NC(=O)[C@@H](N)Cc1ccccc1)C(=O)N[C@@H](Cc1ccccc1)C(=O)N[C@@H](Cc1ccccc1)C(N)=O [compound 50] :: > 200 µM

Let's switch to this compound now.
(Q) Given the compound N=C(N)NCCC[C@H](NC(=O)[C@H](CCCNC(=N)N)NC(=O)[C@H](Cc1ccccc1)NC(=O)[C@H](Cc1ccccc1)NC(=O)[C@H](Cc1ccccc1)NC(=O)[C@@H](N)Cc1ccccc1)C(=O)N[C@@H](Cc1ccccc1)C(=O)N[C@@H](Cc1ccccc1)C(N)=O [compound 39] , what is its reported HC50 at 1 h?
(A) > 200 µM
